Protocol details: Enhancement of bioavailability of drugs given to rats with bioenhancers (plasma drug level by HPLC)
Condition description: drug with Carum carvi bioenhancer and Zingiber officinale 35 mg/kg, drug dose as in row
Please go through the items and note down their % Enhancement in bioavailability, Carum carvi + Zingiber officinale.
Give the value in % but do not write % after it.

Identify measured % Enhancement in bioavailability, Carum carvi + Zingiber officinale corresponding to NCCCC[C@H](N[C@@H](CCc1ccccc1)C(=O)O)C(=O)N1CCC[C@H]1C(=O)O
90

Name the recorded % Enhancement in bioavailability, Carum carvi + Zingiber officinale of the compound listed here: CN(Cc1cc(Br)cc(Br)c1N)C1CCCCC1
71

Supply % Enhancement in bioavailability, Carum carvi + Zingiber officinale value. Item: Cc1cn([C@H]2C[C@H](N=[N+]=[N-])[C@@H](CO)O2)c(=O)[nH]c1=O
87

These measurements were taken from patent US20080292736A1.
